The entries below are paired with their reported melting point.
Outcome Measure: melting point

Compound: O=C(NC1CCCCC1)c1cccc(Cn2cnc3ccccc32)c1
Outcome Measure: melting point
Endpoint Value: 132 to 134 °C

Compound: COc1ccc2ccc(O)c(N=O)c2c1
Outcome Measure: melting point
Endpoint Value: 122 to 124 °C

Compound: CC1(C)COC(Cc2ccc3c(c2)C(=O)c2ccccc2CO3)=N1
Outcome Measure: melting point
Endpoint Value: 101 to 104 °C

Compound: CCCOc1ccc2c(c1)C(N(C)S(C)(=O)=O)C(O)C(C)(C)O2 (stereo unspecified)
Outcome Measure: melting point
Endpoint Value: 149 to 151 °C

Compound: COc1cc(CCCCC#CCCCC#CCO)c(O)c2ccccc12
Outcome Measure: melting point
Endpoint Value: 85 to 87 °C

Compound: Cc1nnc2nc(-c3ccccc3)c3cc(Cl)ccc3n12
Outcome Measure: melting point
Endpoint Value: 335 to 337 °C

Compound: S=C(NC1CCCc2sccc21)C1CCNCC1 (stereo unspecified)
Outcome Measure: melting point
Endpoint Value: 102 °C

Compound: O=C(OCC1CC1)c1ncn2c1[C@@H]1CCCN1C(=O)c1c(Cl)cccc1-2
Outcome Measure: melting point
Endpoint Value: 195 to 196 °C

Compound: CCN1C2=C(CSC2)C(=O)Nc2ccccc21
Outcome Measure: melting point
Endpoint Value: 195 to 197 °C

Compound: OCc1cc2c(cn1)[nH]c1ccccc12
Outcome Measure: melting point
Endpoint Value: 228 to 230 °C

Compound: CS(=O)(=O)NC1Cc2ccc(C(=O)CCCCCl)cc2C1 (stereo unspecified)
Outcome Measure: melting point
Endpoint Value: 71 to 72 °C

Compound: O=S(=O)(Nc1cccc(OCc2ccc3ccccc3n2)c1)c1ccc(Cl)cc1
Outcome Measure: melting point
Endpoint Value: 157 to 159 °C

Compound: CC(=O)NC[C@H]1CN(c2ccc(-c3nsc(C(N)=O)n3)c(F)c2)C(=O)O1
Outcome Measure: melting point
Endpoint Value: 238 to 240 °C

Compound: COc1cc(Nc2c(C#N)cnc3cc(-c4csc(CN5CCN(C)CC5)c4)ccc23)c(Cl)cc1Cl
Outcome Measure: melting point
Endpoint Value: 206 to 209 °C

Compound: CC1=C(C(N)=O)C(c2cccc([N+](=O)[O-])c2)n2ccnc2N1 (stereo unspecified)
Outcome Measure: melting point
Endpoint Value: 238 to 240 °C

Compound: O=C(O)C(Cl)(Cl)CCCCCCCCCCOc1ccc(Cl)cc1
Outcome Measure: melting point
Endpoint Value: 63 to 64 °C

Compound: CCNC(=S)c1ccc2c(c1)Nc1ccccc1S2
Outcome Measure: melting point
Endpoint Value: 155 to 156 °C

Compound: Cc1ccc(S(=O)(=O)N2[C@@H](c3ncn(C)n3)CC[C@H]2c2ccc(F)cc2)cc1 (racemic)
Outcome Measure: melting point
Endpoint Value: 160 °C

Compound: COC(=O)O[C@@H]1[C@@H](c2ccccc2)Nc2c(ccn3c(C)c(C)nc23)[C@H]1OC
Outcome Measure: melting point
Endpoint Value: 90 to 91 °C

Compound: CC(=O)NC[C@H]1CN(c2ccc(N3CCC(C)(O)CC3)c(F)c2)C(=O)O1
Outcome Measure: melting point
Endpoint Value: 180 to 182 °C

Compound: Nc1ccc2c(=O)n3c(nc2c1)C(=Cc1ccccc1)CC3
Outcome Measure: melting point
Endpoint Value: 268 to 270 °C

----------
The entries below are paired with their reported melting point.

Molecule: COc1ccc(-c2cncc(OC3SCC(O)C(O)C3O)c2)c(C)c1 (stereo not given)
melting point: 231 °C
//
Molecule: CCOC(=O)C1CCc2c(oc3cc(NC(C)=O)ccc23)C1 (stereo not given)
melting point: 115 to 116 °C
//
Molecule: Cc1ccc(-c2nc(CCCOS(=O)(=O)c3ccc(C)cc3)c(C(F)(F)F)o2)cc1
melting point: 57 to 58 °C
//
Molecule: CC(C)(O)c1cc(Br)ccc1N
melting point: 62 to 63 °C
//
Molecule: Cc1c(-c2ccc(C(F)(F)F)cc2)n(Cc2ccc(OCCN3CCCCC3)cc2)c2ccc(O)cc12
melting point: 174 °C
//
Molecule: Cc1noc(NS(=O)(=O)c2cccc3nsnc23)c1Br
melting point: 177 to 179 °C
//
Molecule: COc1ccnc2c1c(C(C)=O)cn2C
melting point: 79 to 81 °C
//
Molecule: CCOC(=O)c1cc2c(C(F)(F)F)cc(CO)cc2n1C
melting point: 158 to 159 °C
//
Molecule: CC#CCOc1cc(/C=C/C(=O)O)ccc1OC(F)F
melting point: 206 to 208 °C
//
Molecule: OC1CSC(Oc2cnc(-c3ccncc3)c(F)c2)C(O)C1O (stereo not given)
melting point: 192 °C
//
Molecule: CCCCCS(=O)(=O)NC(=O)OCc1ccc(OCCOC)cc1Oc1ncc(C(F)(F)F)cc1Cl
melting point: 130 to 132 °C
//
Molecule: O=C(O)CCCCCCCCn1nc(-c2ccccc2)c(-c2ccccc2)n1
melting point: 84 to 85 °C
//
Molecule: C=CCc1nc(CC)n2nc(-c3cc(I)cnc3OCCCC)[nH]c(=O)c12
melting point: 134 to 135 °C
//
Molecule: CON=Cc1ccc2c(c1CN1CCN(C)CC1)OCO2
melting point: 100 to 102 °C
//
Molecule: CC1C(=O)Oc2cc(N(Cc3ccccc3)Cc3ccccc3)ccc21 (stereo not given)
melting point: 111 to 112 °C
//
Molecule: Nc1cc(Sc2ccc3c(C(=O)Nc4ccc(F)c(C(F)(F)F)c4)cccc3c2)ncn1
melting point: 221 °C
//
Molecule: C#CCN1C(=O)c2ccccc2C1O (stereo not given)
melting point: 157 to 159 °C
//
Molecule: O=C(C1CCN(c2ccncc2)CC1)N1CCN(S(=O)(=O)c2ccc3ccccc3c2)C(Cc2ccccc2)C1 (stereo not given)
melting point: 186 to 188 °C
//
Molecule: CCCc1c(OCc2cccc(C(=O)NCCCCc3cccnc3)c2)ccc(C(C)=O)c1O
melting point: 120 to 123 °C
//
Molecule: CCCSc1cc2c(c3c1OC(C)(C)C3)C(c1cccc(C(=O)OCC)c1)=NC(C)(C)C2
melting point: 83 to 84 °C

----------
The entries below are paired with their reported melting point.
Outcome Measure: melting point

Compound: O=C(O)C=Cc1cccc2cc[nH]c12
Endpoint Value: 179 to 181 °C
//
Compound: O=C(O)CN(C(=O)OCc1ccccc1)C1CCCC1
Endpoint Value: 110 °C
//
Compound: CCC(=O)C(CCCOc1ccc(OCCCC(C(=O)CC)C(=O)CC)cc1)C(=O)CC
Endpoint Value: 57 to 58 °C
//
Compound: N#Cc1ccc(O)cc1C(N)=O
Endpoint Value: 268 to 270 °C
//
Compound: CC(C)=CCC(C)(C)C(=O)/C=C/[C@@H]1[C@H]2CC(=O)O[C@H]2C[C@H]1OC(=O)c1ccccc1
Endpoint Value: 98 °C
//
Compound: OCc1cn(-c2ccc3ncccc3c2)cn1
Endpoint Value: 183 to 187 °C
//
Compound: CC(Cn1cc[nH]c1=NC#N)c1ccc(OC(F)F)c(OC2CCOC2)c1 (stereo unspecified)
Endpoint Value: 67.8 °C
//
Compound: O=[N+]([O-])c1cc(CCl)ccc1Oc1ccc(OCc2ccccc2)cc1
Endpoint Value: 106 to 107 °C
//
Compound: CC(C)C(C(=O)O)c1ccc(N=[N+]=[N-])cc1 (stereo unspecified)
Endpoint Value: 95 to 97 °C
//
Compound: CCOc1cccc(CNC(=O)[C@H]2N(C(=O)[C@@H](O)[C@H](Cc3ccccc3)NC(=O)c3cccc(O)c3C)CSC2(C)C)c1
Endpoint Value: 105 to 107 °C
//
Compound: CC(C)n1cc(-c2ccc(Oc3ccccc3)cc2)c2c(N)ncnc21
Endpoint Value: 155 to 156 °C
//
Compound: CC(C)=CCn1c(-c2ccc3c(c2)OCO3)nc2ccccc21
Endpoint Value: 73.8 to 76 °C
//
Compound: Cc1ccc([N+](=O)[O-])cc1CCl
Endpoint Value: 56 to 62 °C
//
Compound: Cn1c(=O)c(-c2ccc(Cl)cc2Cl)cc2c3cc(-c4cnco4)ccc3n(C)c21
Endpoint Value: 170 to 174 °C
//
Compound: Cn1c(CNC(=O)c2cc3ccccc3[nH]2)c(-c2ccccc2)c2cc(Cl)ccc2c1=O
Endpoint Value: > 305 °C
//
Compound: NC(=O)c1ncn2c1[C@@H]1CCCN1C(=O)c1c-2ccc(F)c1F
Endpoint Value: 221 to 224 °C
//
Compound: O=C(O)CCC(=O)c1cc2c(s1)CCc1ccccc1C2=O
Endpoint Value: 167 to 168 °C
//
Compound: CN(C)C1CC2=CNC=C3C=C(C(N)=O)OCC1=C32 (stereo unspecified)
Endpoint Value: 182 to 183 °C
//
Compound: CCCc1ccc(-c2[nH]nc3c2C(=O)c2c(NC(C)=O)cccc2-3)cc1
Endpoint Value: 269 °C
//
Compound: CCN1CCN(C(=O)Cc2ccc(I)cc2)CC1
Endpoint Value: 81 to 83 °C
//
Compound: CC(C)(C)OC(=O)N1CCN(c2ccc3c(c2)-n2c(nc4ccccc4c2=O)C3=O)CC1
Endpoint Value: 226 to 228 °C
